The origin of these recorded values is paper PMC10786891.

- ASSAY SYSTEM: T1, EsCas13d, nuclease-dead (Eubacterium siraeum, UniProt B0MS50, R295A;H300A;R849A;H854A)
- T1 sequence: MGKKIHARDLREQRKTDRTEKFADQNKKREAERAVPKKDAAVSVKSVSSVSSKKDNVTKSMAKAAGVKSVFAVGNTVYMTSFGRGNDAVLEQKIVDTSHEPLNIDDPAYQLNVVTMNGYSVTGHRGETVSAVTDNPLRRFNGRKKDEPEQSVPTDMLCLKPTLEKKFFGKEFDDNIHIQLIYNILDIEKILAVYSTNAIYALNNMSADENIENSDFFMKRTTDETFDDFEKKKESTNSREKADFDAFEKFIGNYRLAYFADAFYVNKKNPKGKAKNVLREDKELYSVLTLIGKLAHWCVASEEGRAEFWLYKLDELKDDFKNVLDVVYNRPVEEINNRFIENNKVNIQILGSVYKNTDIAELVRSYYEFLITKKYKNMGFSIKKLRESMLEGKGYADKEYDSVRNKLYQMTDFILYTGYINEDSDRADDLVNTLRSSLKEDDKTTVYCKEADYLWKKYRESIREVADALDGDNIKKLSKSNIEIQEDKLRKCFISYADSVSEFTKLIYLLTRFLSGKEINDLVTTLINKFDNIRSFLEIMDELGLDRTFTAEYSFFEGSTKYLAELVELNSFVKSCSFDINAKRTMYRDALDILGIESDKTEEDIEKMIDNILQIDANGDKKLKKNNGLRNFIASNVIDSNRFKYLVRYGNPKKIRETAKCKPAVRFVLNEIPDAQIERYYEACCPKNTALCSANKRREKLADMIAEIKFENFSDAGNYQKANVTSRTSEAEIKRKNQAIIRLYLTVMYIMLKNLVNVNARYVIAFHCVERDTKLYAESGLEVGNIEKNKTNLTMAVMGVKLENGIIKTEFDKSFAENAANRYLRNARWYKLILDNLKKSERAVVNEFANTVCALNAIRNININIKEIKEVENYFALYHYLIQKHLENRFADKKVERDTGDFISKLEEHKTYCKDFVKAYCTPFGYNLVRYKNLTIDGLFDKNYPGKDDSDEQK
- ASSAY COMMENT: BLI; crRNA (strand 1, pre-loaded); Mg2+; 40 mM Tris-HCl pH 7.5, 150 mM NaCl, 6 mM MgCl2, 1 mM DTT, 0.1% Tween-20, 0.2 mg/ml BSA; temperature not stated
- CONDITION DETAILS: tags: His6-TwinStrep-SUMO cleaved; label: 3' biotin on strand 2
# key: entry, value: koff
VALUE KIND: koff (s⁻¹)

- target 1 A18G (60-mer) (mixed) RNA 1: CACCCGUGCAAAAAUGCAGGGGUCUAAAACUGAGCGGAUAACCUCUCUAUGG RNA 2: CCACAUCUACGAAUUCGUACCAUGGAGAGGUUAUCCGCUCACCGAGAUCGGAAGAGCACA: 0.00063
- target 1 G15A (60-mer) (mixed) RNA 1: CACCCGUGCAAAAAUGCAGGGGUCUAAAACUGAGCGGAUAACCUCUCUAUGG RNA 2: CCACAUCUACGAAUUCGUACCAUAGAAAGGUUAUCCGCUCACCGAGAUCGGAAGAGCACA: 0.0006
- target 1 G5U (60-mer) (mixed) RNA 1: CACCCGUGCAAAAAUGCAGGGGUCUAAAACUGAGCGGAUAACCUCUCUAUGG RNA 2: CCACAUCUACGAAUUCGUACCAUAGAGAGGUUAUCCUCUCACCGAGAUCGGAAGAGCACA: 0.00042
- target 1 MT (60-mer) (mixed) RNA 1: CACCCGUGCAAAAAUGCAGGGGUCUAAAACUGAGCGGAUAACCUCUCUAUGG RNA 2: CCACAUCUACGAAUUCGUACCAUAGAGAGGUUAUCCGCUCACCGAGAUCGGAAGAGCACA: 0.00052
- target 1 U10G (60-mer) (mixed) RNA 1: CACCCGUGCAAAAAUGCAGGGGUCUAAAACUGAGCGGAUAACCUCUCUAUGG RNA 2: CCACAUCUACGAAUUCGUACCAUAGAGAGGUGAUCCGCUCACCGAGAUCGGAAGAGCACA: 0.00051
- target 1 3'-GGU (60-mer) (mixed) RNA 1: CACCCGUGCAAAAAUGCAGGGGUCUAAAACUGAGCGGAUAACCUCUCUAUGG RNA 2: CCACAUCUACGAAUUCGUACCAUAGAGAGGUUAUCCGCUCAGGUAGAUCGGAAGAGCACA: 0.00084
- target 1 A20C (60-mer) (mixed) RNA 1: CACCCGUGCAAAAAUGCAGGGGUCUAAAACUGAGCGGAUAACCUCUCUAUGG RNA 2: CCACAUCUACGAAUUCGUACCCUAGAGAGGUUAUCCGCUCACCGAGAUCGGAAGAGCACA: 0.00063
- target 1 C2G (60-mer) (mixed) RNA 1: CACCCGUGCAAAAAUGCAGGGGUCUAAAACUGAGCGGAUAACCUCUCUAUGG RNA 2: CCACAUCUACGAAUUCGUACCAUAGAGAGGUUAUCCGCUGACCGAGAUCGGAAGAGCACA: 0.0004
